ASSAY PROCEDURE: cAMP Responsive Elements (CRE) small molecule agonists, cell-based qHTS assay (AID 1963590)
ASSAY CONTEXT: CRE-bla HEK293T, beta-lactamase FRET ratio, 3 h; series mostly up to 92.4 µM
Records with an inconclusive call do not appear. Calls of active or inactive are those of the source. The call rests on the fitted dose curve.
VALUE TYPE: activation

| SMILES DATA | VALUE TYPE | ENDPOINT VALUE |
| --- | --- | --- |
| COc1cc(OC)nc(Sc2cccc(Cl)c2C(=O)O)n1 | activation | inactive |
| CCOC(=O)CP(=O)(OCC)OCC | activation | inactive |
| CC(=O)CCC(C)=O | activation | inactive |

----------
ASSAY PROCEDURE: p53 small molecule agonists, cell-based qHTS assay with human liver microsomes: qHTS cell viability counter screen (AID 1963579); further: nearly all actives have a fitted effect of over 45% in size
ASSAY CONTEXT: p53RE-bla HCT-116 viability, ATP luminescence, 16 h, HLM; series mostly up to 66 µM
Results filed as inconclusive are left out. The source made the active and inactive calls. The call rests on the fitted dose curve.
Respond using exactly one of the listed classes: y (active), n (inactive)

Some entries whose results are on file:
| COMPOUND | CLASSIFICATION |
| --- | --- |
| O=C(Cl)c1ccccc1 | n |
| Cc1[nH]c(=O)n(C(C)(C)C)c(=O)c1Cl | n |
| ClC(Cl)c1ccccc1 | n |
| Nc1cnn(-c2ccccc2)c(=O)c1Cl | n |

Task: Recorded call for CNC(=O)Oc1c(C(C)(C)C)cc(C)cc1C(C)(C)C ?
Result: n

Task: And then COC(=O)Nc1nc2ccccc2[nH]1 , what is it?
Result: n

----------
TARGET OR TEST SYSTEM: Muscarinic acetylcholine receptor M1 (Homo sapiens)
ASSAY PROCEDURE: Cholinergic receptor muscarinic 1 (CHRM1) small molecule antagonists, cell-based qHTS assay (AID 1963588); further: nearly all actives have a fitted effect of over 40% in size
ASSAY CONTEXT: CHRM1-CHO antagonist mode, calcium flux fluorescence; series mostly up to 61.5 µM
Records with an inconclusive call do not appear. The source made the active and inactive calls. The call rests on the fitted dose curve.
In this exercise, the only acceptable responses are Yes = active, No = inactive

Previously resolved entries follow.
| COMPOUND | TARGET OR TEST SYSTEM | CLASSIFICATION |
| --- | --- | --- |
| CCOC(=O)C(O)(c1ccc(Cl)cc1)c1ccc(Cl)cc1 | Muscarinic acetylcholine receptor M1 (Homo sapiens) | Yes |
| CC(=O)CC(c1ccc(Cl)cc1)c1c(O)c2ccccc2oc1=O (stereo unspecified) | Muscarinic acetylcholine receptor M1 (Homo sapiens) | No |
| CCOC(=O)C1OC1(C)c1ccccc1 (stereo unspecified) | Muscarinic acetylcholine receptor M1 (Homo sapiens) | No |

Task: Recorded test call requested for CCOP(=S)(OCC)Oc1cc(C)nc(C(C)C)n1
Result: No

Task: Request: C=CCc1cc(OC)c2c(c1)OCO2
Result: No

----------
ASSAY PROCEDURE: p53 small molecule agonists, cell-based qHTS assay (AID 1963582)
ASSAY CONTEXT: HCT-116 p53RE-bla reporter, beta-lactamase FRET ratio, 16 h; series mostly up to 66 µM
Records with an inconclusive call do not appear. Activity calls are given as the source filed them. Calls come from the whole dose curve; as a rule, active = well fitted activation curve with a large enough effect in the signal ratio in the repeat runs (not every such curve was filed as active); inconclusive = weak or mixed curves; inactive = flat fitted curve, though single readings scatter; the % refers to the signal ratio.
Your response should consist of one outcome taken from Yes for active, No for inactive

| MOLECULE | CLASSIFICATION |
| --- | --- |
| NC(=O)CN1CCCC1=O | No |
| Cc1cc(Cl)ccc1OCC(=O)O | No |
| C=CCCC#N | No |
| COc1ccc(O)c(C(C)(C)C)c1 | No |
| BrC(Br)Br | No |

Turning now to a further record.
Task: Give the logged outcome of this assay for the following molecule: CCCCCCOC(=O)c1ccccc1C(=O)OCCCCCC
Result: No
